test.target: T1, alpha-s1 casein from Bos taurus
T1 chain: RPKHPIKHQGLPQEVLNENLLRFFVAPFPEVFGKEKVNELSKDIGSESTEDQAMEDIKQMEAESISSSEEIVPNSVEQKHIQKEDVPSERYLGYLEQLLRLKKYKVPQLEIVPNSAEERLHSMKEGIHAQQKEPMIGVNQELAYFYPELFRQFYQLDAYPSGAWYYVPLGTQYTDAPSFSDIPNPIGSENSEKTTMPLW
parameter: small, 24 hours, 11° C. (Volume)

[[record]]
protein = "bovine chymosin B variant #1 (A51V) (protein) GEVASVPLTNYLDSQYFGKIYLGTPPQEFTVLFDTGSSDFWVPSIYCKSNVCKNHQRFDPRKSSTFQNLGKPLSIHYGTGSMQGILGYDTVTVSNIVDIQQTVGLSTQEPGDVFTYAEFDGILGMAYPSLASEYSIPVFDNMMNRHLVAQDLFSVYMDRNGQESMLTLGAIDPSYYTGSLHWVPVTVQQYWQFTVDSVTISGVVVACEGGCQAILDTGTSKLVGPSSDILNIQQAIGATQNQYGEFDIDCDNLSYMPTVVFEINGKMYPLTPSAYTSQDQGFCTSGFQSENHSQKWILGDVFIREYYSVFDRANNLVGLAKAI"
unit_annotation = "Volume"
readout_value = 0

[[record]]
protein = "bovine chymosin B variant #74 (A51V, K221M) (protein) GEVASVPLTNYLDSQYFGKIYLGTPPQEFTVLFDTGSSDFWVPSIYCKSNVCKNHQRFDPRKSSTFQNLGKPLSIHYGTGSMQGILGYDTVTVSNIVDIQQTVGLSTQEPGDVFTYAEFDGILGMAYPSLASEYSIPVFDNMMNRHLVAQDLFSVYMDRNGQESMLTLGAIDPSYYTGSLHWVPVTVQQYWQFTVDSVTISGVVVACEGGCQAILDTGTSMLVGPSSDILNIQQAIGATQNQYGEFDIDCDNLSYMPTVVFEINGKMYPLTPSAYTSQDQGFCTSGFQSENHSQKWILGDVFIREYYSVFDRANNLVGLAKAI"
unit_annotation = "Volume"
readout_value = 0

[[record]]
protein = "bovine chymosin B variant #6 (K221M) (protein) GEVASVPLTNYLDSQYFGKIYLGTPPQEFTVLFDTGSSDFWVPSIYCKSNACKNHQRFDPRKSSTFQNLGKPLSIHYGTGSMQGILGYDTVTVSNIVDIQQTVGLSTQEPGDVFTYAEFDGILGMAYPSLASEYSIPVFDNMMNRHLVAQDLFSVYMDRNGQESMLTLGAIDPSYYTGSLHWVPVTVQQYWQFTVDSVTISGVVVACEGGCQAILDTGTSMLVGPSSDILNIQQAIGATQNQYGEFDIDCDNLSYMPTVVFEINGKMYPLTPSAYTSQDQGFCTSGFQSENHSQKWILGDVFIREYYSVFDRANNLVGLAKAI"
unit_annotation = "Volume"
readout_value = "4.3e+06"

[[record]]
protein = "bovine chymosin B variant #7 (K221V) (protein) GEVASVPLTNYLDSQYFGKIYLGTPPQEFTVLFDTGSSDFWVPSIYCKSNACKNHQRFDPRKSSTFQNLGKPLSIHYGTGSMQGILGYDTVTVSNIVDIQQTVGLSTQEPGDVFTYAEFDGILGMAYPSLASEYSIPVFDNMMNRHLVAQDLFSVYMDRNGQESMLTLGAIDPSYYTGSLHWVPVTVQQYWQFTVDSVTISGVVVACEGGCQAILDTGTSVLVGPSSDILNIQQAIGATQNQYGEFDIDCDNLSYMPTVVFEINGKMYPLTPSAYTSQDQGFCTSGFQSENHSQKWILGDVFIREYYSVFDRANNLVGLAKAI"
unit_annotation = "Volume"
readout_value = "1.05e+07"

